Provenance of the data: paper PMC9487755

subject_of_test: CamA (Clostridioides difficile, UniProt Q183J3)
assay_info: ITC binding of inhibitors to CamA
parameter_measured: Kd (µM)
Reply numerically in µM, unit not repeated.

response.value for `CC(C)N(CCCNC(=O)Nc1ccc(C(C)(C)C)cc1)C[C@H]1O[C@@H](n2cc(Br)c3c(N)ncnc32)[C@H](O)[C@@H]1O` (field: Kd) = 6.3

###

subject_of_test: C. difficile CamA (Clostridioides difficile, UniProt Q183J3)
Sequence (Q183J3 1-577): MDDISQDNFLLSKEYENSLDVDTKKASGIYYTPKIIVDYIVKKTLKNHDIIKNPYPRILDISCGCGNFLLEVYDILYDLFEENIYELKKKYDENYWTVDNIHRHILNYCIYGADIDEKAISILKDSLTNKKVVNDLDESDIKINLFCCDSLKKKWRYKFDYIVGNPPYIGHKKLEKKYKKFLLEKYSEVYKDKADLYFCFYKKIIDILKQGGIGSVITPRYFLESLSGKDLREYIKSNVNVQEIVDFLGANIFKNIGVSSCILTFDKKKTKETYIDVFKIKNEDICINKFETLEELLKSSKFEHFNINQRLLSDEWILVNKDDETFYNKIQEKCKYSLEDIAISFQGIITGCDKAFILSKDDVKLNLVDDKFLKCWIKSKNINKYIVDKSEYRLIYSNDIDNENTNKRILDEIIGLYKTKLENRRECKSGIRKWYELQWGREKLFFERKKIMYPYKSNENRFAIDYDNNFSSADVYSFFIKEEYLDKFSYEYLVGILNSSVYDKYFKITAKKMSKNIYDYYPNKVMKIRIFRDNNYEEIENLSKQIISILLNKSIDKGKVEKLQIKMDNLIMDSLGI
assay_info: CamA methylation inhibition assay
Type: biochemical
experimental_setup: 50 μM inhibitor
parameter_measured: Relative inhibition of CamA activity at a single inhibitor concentration

Known value: C. difficile CamA (Clostridioides difficile, UniProt Q183J3) Relative inhibition of CamA activity at a single inhibitor concentration of the compound `CC(C)N(CCCNC(=O)Nc1ccc(C(C)(C)C)cc1)C[C@H]1O[C@@H](n2cc(Br)c3c(N)ncnc32)[C@H](O)[C@@H]1O` equals notable inhibition

Bench note, C. difficile CamA (Clostridioides difficile, UniProt Q183J3): entry `CC(C)N(CCCNC(=O)Nc1ccc(C(C)(C)C)cc1)C[C@H]1O[C@@H](n2ccc3c(N)ncnc32)[C@H](O)[C@@H]1O` , its Relative inhibition of CamA activity at a single inhibitor concentration = notable inhibition
